- target of assay: biotinylated human Gal-3 (hGal-3) (Homo sapiens, UniProt P17931)
- Sequence (P17931 whole entry): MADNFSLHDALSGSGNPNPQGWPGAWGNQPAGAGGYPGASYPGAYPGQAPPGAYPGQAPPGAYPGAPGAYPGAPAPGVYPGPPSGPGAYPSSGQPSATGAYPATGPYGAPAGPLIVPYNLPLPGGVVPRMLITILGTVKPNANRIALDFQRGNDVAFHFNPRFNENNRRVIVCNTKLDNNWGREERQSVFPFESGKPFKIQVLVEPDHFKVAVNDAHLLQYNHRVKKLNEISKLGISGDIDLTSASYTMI
- experiment summary: Competitive binding assay: biotinylated hGal-3 binding to microplate-adsorbed asialofetuin (ASF), spectrophotometric
- condition context: Table 10; hGal-3; read-out: IC50 (Gal-3 inhibition)
endpoint name: IC50 (nM)

Consider the reported IC50 for these compounds:
[[record]]
compound = "CCN(CC1CCOCC1)C(=O)C(S[C@@H]1O[C@H](CO)[C@H](O)[C@H](n2cc(-c3cc(F)c(F)c(F)c3)nn2)[C@H]1OC)C1(O)CCC(F)(F)CC1 (some centres unmarked)"
unit = "nM"
data_value = 30

[[record]]
compound = "CCN(C(=O)C(S[C@@H]1O[C@H](CO)[C@H](O)[C@H](n2cc(-c3cc(F)c(F)c(F)c3)nn2)[C@H]1OC)C1(O)CCC(F)(F)CC1)C1CCOCC1 (some centres unmarked)"
unit = "nM"
data_value = 70


1 = CCN(CC1CC1)C(=O)C(S[C@@H]1O[C@H](CO)[C@H](O)[C@H](n2cc(-c3cc(F)c(F)c(F)c3)nn2)[C@H]1OC)C1(O)CCC(F)(F)CC1 (some centres unmarked)
2 = CCN(C(=O)[C@@H](S[C@@H]1O[C@H](CO)[C@H](O)[C@H](n2cc(-c3cc(F)c(F)c(F)c3)nn2)[C@H]1OC)C1(O)CCC(F)(F)CC1)C1CC1 [Example 2.44.238S.I.]
// query When the recorded IC50 values are compared, which is smaller: that of 1 or that of 2 ? Your answer should be the label of the entry you select.
// result 2
(2: 20 nM, 1: 40 nM)

Recorded values, source patent US12410208B2.
